system: 624824-186-R-J3-PDC multicell spheroids, viability; test: Anticancer human tumor 624824-186-R-J3-PDC patient-derived colon adenocarcinoma cell line growth inhibition [PI3K]; conditions: second compound 0.00316 µM; first compound 1 µM; active compounds read low
measured_metric: viability, T/C (%)
Numbers only; they are read as %.

Examples with their reported viability, T/C follow.
C#Cc1c(F)ccc2cc(O)cc(-c3ncc4c(N5CC6CCC(C5)N6)nc(OCC56CCCN5CC(F)C6)nc4c3F)c12 (stereo unspecified) + COc1c(OCCCN2CCOCC2)ccc2c3n(c(=NC(=O)c4cnc(N)nc4)nc12)CCN3: 103
Cn1nccc1Nc1nccc(-c2ccn(C(CO)c3ccc(Cl)c(F)c3)c(=O)c2)n1 (stereo unspecified) + CC(Nc1ccc2c(c1)OCCn1cc(N3C(=O)OCC3C(F)F)nc1-2)C(N)=O: 75.9
Cn1ncc(Cl)c1-c1cc(C(=O)NC(CN)Cc2cccc(F)c2)sc1Cl (stereo unspecified) + CC(Nc1ccc2c(c1)OCCn1cc(N3C(=O)OCC3C(F)F)nc1-2)C(N)=O: 74.1

Entry Cn1nccc1Nc1nccc(-c2ccn(C(CO)c3ccc(Cl)c(F)c3)c(=O)c2)n1 (stereo unspecified) + COc1c(OCCCN2CCOCC2)ccc2c3n(c(=NC(=O)c4cnc(N)nc4)nc12)CCN3 has what viability, T/C?
72.8

Please answer likewise for Cn1ncc(Cl)c1-c1cc(C(=O)NC(CN)Cc2cccc(F)c2)sc1Cl (stereo unspecified) + COc1c(OCCCN2CCOCC2)ccc2c3n(c(=NC(=O)c4cnc(N)nc4)nc12)CCN3
74.8

Please answer likewise for CCCS(=O)(=O)Nc1ccc(F)c(C(=O)c2c[nH]c3ncc(-c4ccc(Cl)cc4)cc23)c1F + COc1c(OCCCN2CCOCC2)ccc2c3n(c(=NC(=O)c4cnc(N)nc4)nc12)CCN3
96.9

###

tested on: 624824-186-R-J3-PDC multicell spheroids, viability; assay: Anticancer human tumor 624824-186-R-J3-PDC cell line growth inhibition [PI3K]; conditions: second compound 0.01 µM; first compound 0.01 µM; active compounds read low;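 further: luminescent signal used as a stand-in for spheroid viability; spheroids exposed to agents for seven days before luminescence read; percent viability relative to DMSO vehicle control wells taken as 100%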
Recorded viability, T/C, one value per entry.
Numbers only; they are read as %.

Examples with their reported viability, T/C follow.
CC(=O)c1c(C)c2cnc(Nc3ccc(N4CCNCC4)cn3)nc2n(C2CCCC2)c1=O + CC(Nc1ccc2c(c1)OCCn1cc(N3C(=O)OCC3C(F)F)nc1-2)C(N)=O: 102
CCN1CCN(Cc2ccc(Nc3ncc(F)c(-c4cc(F)c5nc(C)n(C(C)C)c5c4)n3)nc2)CC1 + COc1c(OCCCN2CCOCC2)ccc2c3n(c(=NC(=O)c4cnc(N)nc4)nc12)CCN3: 94.9
Cn1ncnc1[C@H]1c2n[nH]c(=O)c3cc(F)cc(c23)N[C@@H]1c1ccc(F)cc1 + CC(Nc1ccc2c(c1)OCCn1cc(N3C(=O)OCC3C(F)F)nc1-2)C(N)=O: 95.7
CC(C)n1nc(-c2ccc3oc(N)nc3c2)c2c(N)ncnc21 + CC(Nc1ccc2c(c1)OCCn1cc(N3C(=O)OCC3C(F)F)nc1-2)C(N)=O: 105
CCN1CCN(Cc2ccc(Nc3ncc(F)c(-c4cc(F)c5nc(C)n(C(C)C)c5c4)n3)nc2)CC1 + CC(Nc1ccc2c(c1)OCCn1cc(N3C(=O)OCC3C(F)F)nc1-2)C(N)=O: 89

Any idea what viability, T/C came out for CC(=O)c1c(C)c2cnc(Nc3ccc(N4CCNCC4)cn3)nc2n(C2CCCC2)c1=O + COc1c(OCCCN2CCOCC2)ccc2c3n(c(=NC(=O)c4cnc(N)nc4)nc12)CCN3 on 624824-186-R-J3-PDC multicell spheroids, viability?
105

Please answer likewise for Cn1ncnc1[C@H]1c2n[nH]c(=O)c3cc(F)cc(c23)N[C@@H]1c1ccc(F)cc1 + COc1c(OCCCN2CCOCC2)ccc2c3n(c(=NC(=O)c4cnc(N)nc4)nc12)CCN3
93.1

Please answer likewise for CC(C)n1nc(-c2ccc3oc(N)nc3c2)c2c(N)ncnc21 + COc1c(OCCCN2CCOCC2)ccc2c3n(c(=NC(=O)c4cnc(N)nc4)nc12)CCN3
95.9

Just for reference, PubChem BioAssay AID1963977 is where these values come from.
